Task for the reader: assign each of the following compounds its reported Potency.
Experimental Protocol: qHTS Assay for Modulators of miRNAs and/or Inhibitors of miR-21; note: potency is the fitted concentration of half-maximal effect; nearly all actives have a fitted effect of over 55% in size
Test Parameters: HeLa miR-21-FLuc reporter, luciferase luminescence, 48 h; actives lower the signal
From the text: MLSCN Grant: 1 R21 NS059478-01 Assay Provider: Qihong Huang, The Wistar Institute NCGC Assay Overview: MicroRNAs (miRNAs) are endogenously encoded small (~20-25 nucleotides), nonprotein-coding RNAs that are involved in post-transcriptional repression of target messenger RNAs (mRNAs) (Le and Hannon, 2004). […]
Hit rate of the full screen: of about 340,000 compounds, about 3,300 (0.97%) were called active. About 9% were inconclusive and are not listed. The list shows a part of the results.

Qu. Identify the reported Potency for the following entry. O=C1C[C@H]2[C@H](CO)[C@@H](OC(=O)c3ccc(-c4ccccc4)cc3)C[C@H]2O1
Ans. 7.36 µM (active)

Qu. Identify the reported Potency for the following entry. Cc1ccccc1NC(=O)c1ccc2[nH]c(C)c(C)c2c1
Ans. 1.31 µM (active)

Qu. Identify the reported Potency for the following entry. O=C(/C=C/Nc1ccc(F)cc1)c1ccc(Br)cc1
Ans. 0.927 µM (active)

Qu. Identify the reported Potency for the following entry. O=C(c1cc(-c2ccccc2O)on1)N1CCCCC1
Ans. 0.826 µM (active)

Qu. Identify the reported Potency for the following entry. COc1cnn(-c2ccc(Br)cc2)c(=O)c1SCc1ccccc1
Ans. 13.1 µM (active)

Qu. Identify the reported Potency for the following entry. COc1ccccc1NC(=O)c1ccc2[nH]c(C)c(C)c2c1
Ans. 5.21 µM (active)

Qu. Identify the reported Potency for the following entry. COCCNC(=O)c1cc2oc3ccccc3c2n1C
Ans. 14.7 µM (active)

Qu. Identify the reported Potency for the following entry. CCc1ccc(NC(=O)CSc2nncn2-c2cccnc2)cc1
Ans. 16.5 µM (active)

Qu. Identify the reported Potency for the following entry. COc1ccc(N/C=C/C(=O)c2ccc3c(c2)OCO3)cc1OC
Ans. 13.1 µM (active)

Qu. Identify the reported Potency for the following entry. O=C(Nc1ccc(NC(=O)c2cccs2)cc1)c1cccs1
Ans. 5.21 µM (active)

Qu. Identify the reported Potency for the following entry. Cc1cccc(OCc2cc(-c3ccccc3)no2)c1C
Ans. 7.36 µM (active)

Qu. Identify the reported Potency for the following entry. Cc1cc(NC(=O)CCSc2ccccc2)ccc1Br
Ans. 16.5 µM (active)

Qu. Identify the reported Potency for the following entry. O=C(/C=C\Nc1ccc2c(c1)OCO2)c1ccc(Cl)s1
Ans. 0.464 µM (active)

Qu. Identify the reported Potency for the following entry. Cc1ccc(-n2ncc3c(NC4CCCCC4)ncnc32)cc1
Ans. 0.521 µM (active)

Qu. Identify the reported Potency for the following entry. O=C(CNC(=O)c1ccco1)Nc1ccc(Br)cc1
Ans. 11.7 µM (active)

Qu. Identify the reported Potency for the following entry. COC(=O)c1ccc(N=NN2CCCCCC2)cc1
Ans. 5.85 µM (active)

Qu. Identify the reported Potency for the following entry. COc1ccc(C(c2c(O)ccc3ccccc23)N2CCOCC2)c(OC)c1 (stereo not given)
Ans. 11.7 µM (active)

Qu. Identify the reported Potency for the following entry. COc1ccc(-c2nc(C#N)c(NCC3CCCO3)o2)cc1OC (stereo not given)
Ans. 14.7 µM (active)

Qu. Identify the reported Potency for the following entry. Cc1nn(-c2ccccc2)c(N)c1N=Nc1cccnc1
Ans. 11.7 µM (active)

Qu. Identify the reported Potency for the following entry. Cc1ccc(-c2cn(-c3ccccc3)c(SCC(=O)NC3CCS(=O)(=O)C3)n2)cc1C (stereo not given)
Ans. 7.36 µM (active)

Qu. Identify the reported Potency for the following entry. CSc1ccc(/C=N/NC(=O)c2cccs2)cc1
Ans. 1.31 µM (active)

Qu. Identify the reported Potency for the following entry. CCn1c2ccccc2c2nc3cc(C(=O)O)ccc3nc21
Ans. 9.27 µM (active)

Qu. Identify the reported Potency for the following entry. O=C(c1cc(-c2ccccc2O)on1)N1CCOCC1
Ans. 13.1 µM (active)

Qu. Identify the reported Potency for the following entry. Cc1cc(N2CCN(C)CC2)nc2ccc(NC(=O)Nc3ccccc3)cc12
Ans. 7.36 µM (active)

Qu. Identify the reported Potency for the following entry. CCn1c(COc2ccccc2C)nc2ccccc21
Ans. 9.27 µM (active)

Qu. Identify the reported Potency for the following entry. CCCc1cc(=O)n2[nH]c(-c3ccccc3)cc2n1
Ans. 4.14 µM (active)

Qu. Identify the reported Potency for the following entry. O=c1oc2ccccc2cc1-c1nc(-c2cccs2)no1
Ans. 1.17 µM (active)

Qu. Identify the reported Potency for the following entry. O=C1NN(c2ccccc2)C(=O)/C1=C/c1coc2ccccc2c1=O
Ans. 4.65 µM (active)

Qu. Identify the reported Potency for the following entry. O=c1oc2cc(O)ccc2cc1-c1ccccc1
Ans. 13.1 µM (active)

Qu. Identify the reported Potency for the following entry. c1ccc(C2=NN(c3ccccc3)CC2)cc1
Ans. 5.21 µM (active)

Qu. Identify the reported Potency for the following entry. Cc1cccc(N=Nc2c(C)nn(-c3ccccc3)c2N)c1C
Ans. 7.36 µM (active)

Qu. Identify the reported Potency for the following entry. O=c1oc2ccccc2cc1-c1ccccc1
Ans. 16.5 µM (active)

Qu. Identify the reported Potency for the following entry. Cc1ccc(N/C=C/C(=O)c2ccccc2)cc1Br
Ans. 0.369 µM (active)

Qu. Identify the reported Potency for the following entry. c1ccc(-c2ccc(-c3ccccn3)s2)nc1
Ans. 0.736 µM (active)

Qu. Identify the reported Potency for the following entry. Cc1cccc(-n2ncc3c(NC4CCCCC4)ncnc32)c1
Ans. 0.414 µM (active)

Qu. Identify the reported Potency for the following entry. O=C(Nc1ccccc1)c1ccc(-c2ccccc2)s1
Ans. 1.85 µM (active)

Qu. Identify the reported Potency for the following entry. Cc1cccnc1Nc1nc(-c2ccc(O)cc2)cs1
Ans. 3.29 µM (active)

Qu. Identify the reported Potency for the following entry. O=C(/C=C\Nc1ccc(Br)cc1)c1cccnc1
Ans. 1.31 µM (active)

Qu. Identify the reported Potency for the following entry. Oc1ccc(-c2csc(NCc3ccco3)n2)cc1
Ans. 4.65 µM (active)

Qu. Identify the reported Potency for the following entry. CN(C)c1ccc(-c2ccc3c(=O)c4ccccc4n(C)c3c2)cn1
Ans. 4.65 µM (active)

Qu. Identify the reported Potency for the following entry. C#CCn1c(COc2ccccc2C)nc2ccccc21
Ans. 5.85 µM (active)

Qu. Identify the reported Potency for the following entry. O=C(O)c1ccc(N/N=C/c2cc3ccccc3nc2Cl)cc1
Ans. 3.29 µM (active)

Qu. Identify the reported Potency for the following entry. Cc1cccnc1Nc1nc(-c2ccc(O)c(O)c2)cs1
Ans. 4.65 µM (active)

Qu. Identify the reported Potency for the following entry. Cn1c(C(=O)NCC2CCCO2)cc2oc3ccccc3c21 (stereo not given)
Ans. 2.07 µM (active)

Qu. Identify the reported Potency for the following entry. N#C/C(=C\c1c[nH]c2ccccc12)c1nnc2n1CCCCC2
Ans. 18.5 µM (active)

Qu. Identify the reported Potency for the following entry. Cc1ccc2cc(/C=N/Nc3ccc(C(=O)O)cc3)c(Cl)nc2c1
Ans. 2.07 µM (active)

Qu. Identify the reported Potency for the following entry. Cc1ccccc1OCc1nc2ccccc2n1C
Ans. 1.04 µM (active)

Qu. Identify the reported Potency for the following entry. Cc1cccc2cc(/C=N/Nc3ccc(C(=O)O)cc3)c(Cl)nc12
Ans. 0.521 µM (active)

Qu. Identify the reported Potency for the following entry. COC(=O)c1ccc(N=NN2CCOCC2)cc1
Ans. 7.36 µM (active)

Qu. Identify the reported Potency for the following entry. O=C(c1cc(-c2ccccc2O)on1)N1CCCCCC1
Ans. 2.07 µM (active)

----------
Task for the reader: assign each of the following compounds its reported Potency.
Experimental Protocol: qHTS Assay for Modulators of miRNAs and/or Inhibitors of miR-21; note: potency is the fitted concentration of half-maximal effect; nearly all actives have a fitted effect of over 55% in size
Test Parameters: HeLa miR-21-FLuc reporter, luciferase luminescence, 48 h; actives lower the signal
Screen size: about 340,000 compounds; about 3,300 (0.97%) were called active. About 9% were inconclusive and are not listed. The list shows a part of the results.

Qu. Identify the reported Potency for the following entry. Cc1ccc(N(CC(=O)Nc2ccc3c(c2)OCCO3)S(C)(=O)=O)cc1
Ans. 10.4 µM (active)

Qu. Identify the reported Potency for the following entry. COc1ccc(-n2nc3cc(C)c(N)c(Br)c3n2)cc1
Ans. 4.14 µM (active)

Qu. Identify the reported Potency for the following entry. COc1n[nH]c(C(=O)Nc2nc3ccccc3s2)c1[N+](=O)[O-]
Ans. 6.56 µM (active)

Qu. Identify the reported Potency for the following entry. CCOC(=O)c1cn[nH]c1NC(=S)Nc1ccc(Cl)cc1
Ans. 0.656 µM (active)

Qu. Identify the reported Potency for the following entry. COc1cc2ccccc2cc1C(=O)Nc1ccccc1Cl
Ans. 1.85 µM (active)

Qu. Identify the reported Potency for the following entry. Cc1ccc(N=C2NC(=O)/C(=C\c3cccs3)S2)cc1C
Ans. 10.4 µM (active)

Qu. Identify the reported Potency for the following entry. COc1ccc(NC(=S)c2ccc(N(C)C)cc2)cc1
Ans. 1.17 µM (active)

Qu. Identify the reported Potency for the following entry. Nc1ccccc1C(=O)N/N=C1\C2CN3CCN(C2)CC1(c1ccccc1)C3
Ans. 7.36 µM (active)

Qu. Identify the reported Potency for the following entry. CCOC(=O)C1CCCN(C(=O)CCc2nnc(-c3ccc(C(C)=O)s3)o2)C1 (stereo unspecified)
Ans. 3.29 µM (active)

Qu. Identify the reported Potency for the following entry. CN(C)C=NC(=O)c1cc(C(=O)c2ccc(C(C)(C)C)cc2)c[nH]1
Ans. 0.927 µM (active)

Qu. Identify the reported Potency for the following entry. CCCCC12CN3CCN(CC(C3)/C1=N\NC(=O)c1ccccc1N)C2
Ans. 9.27 µM (active)
